Parameter 'readout' = IC50; parameter 'system' = Poly [ADP-ribose] polymerase 1 (Homo sapiens, UniProt P09874).
Sequence (P09874 whole entry): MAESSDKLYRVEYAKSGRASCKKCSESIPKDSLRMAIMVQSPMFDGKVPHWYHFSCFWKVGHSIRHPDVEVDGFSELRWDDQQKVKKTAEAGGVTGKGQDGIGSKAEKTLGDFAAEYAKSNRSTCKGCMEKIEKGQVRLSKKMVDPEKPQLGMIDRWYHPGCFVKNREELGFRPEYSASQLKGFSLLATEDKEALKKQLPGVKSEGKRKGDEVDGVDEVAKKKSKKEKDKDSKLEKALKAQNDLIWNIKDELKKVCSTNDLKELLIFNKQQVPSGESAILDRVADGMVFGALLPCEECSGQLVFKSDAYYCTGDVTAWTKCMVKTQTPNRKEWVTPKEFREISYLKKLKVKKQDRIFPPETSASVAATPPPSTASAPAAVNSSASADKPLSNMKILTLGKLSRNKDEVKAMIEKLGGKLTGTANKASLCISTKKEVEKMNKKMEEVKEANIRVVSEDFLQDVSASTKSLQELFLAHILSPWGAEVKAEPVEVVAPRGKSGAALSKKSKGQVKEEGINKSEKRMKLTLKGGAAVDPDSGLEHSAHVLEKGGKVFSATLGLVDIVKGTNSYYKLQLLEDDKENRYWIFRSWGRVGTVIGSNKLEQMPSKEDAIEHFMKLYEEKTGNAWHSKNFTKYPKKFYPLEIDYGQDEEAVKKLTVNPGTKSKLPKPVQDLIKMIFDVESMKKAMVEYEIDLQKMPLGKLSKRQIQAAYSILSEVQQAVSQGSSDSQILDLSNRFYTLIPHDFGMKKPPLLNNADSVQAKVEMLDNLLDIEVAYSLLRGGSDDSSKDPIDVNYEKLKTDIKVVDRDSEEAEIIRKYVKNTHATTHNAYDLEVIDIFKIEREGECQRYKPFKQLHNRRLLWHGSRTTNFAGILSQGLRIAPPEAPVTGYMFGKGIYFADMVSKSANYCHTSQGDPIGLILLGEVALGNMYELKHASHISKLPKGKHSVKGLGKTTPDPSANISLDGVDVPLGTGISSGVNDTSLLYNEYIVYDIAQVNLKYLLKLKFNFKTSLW
Respond numerically; units are µM and should not be typed.

Exercise: Query: IC50; subject: `N#Cc1c(-c2ccccc2)cn2c1[nH]c(=O)c1ccccc12`
Key: 9.57

Exercise: Query: IC50; subject: `O=C1N[C@H]2Cc3ccccc3CN2c2ccccc21`
Key: 1.92

====

# SYSTEM: Poly [ADP-ribose] polymerase 1 (Homo sapiens)
# METHOD SUMMARY: Inhibition of PARP-1 (unknown origin) at 1 uM after 60 mins by colorimetric assay relative to control
The reader will find reported inhibition values listed item by item below.

Exercise: Query: inhibition; subject: `N#Cc1c(-c2ccccc2)cn2c1[nH]c(=O)c1ccccc12`
Key: 40%

New cases:
Exercise: Query: inhibition; subject: `Cc1sc2nc(SCC(=O)N3CCN(CCO)CC3)[nH]c(=O)c2c1C`
Key: 40%
